# experimental_system: STAT3 (Homo sapiens, UniProt P40763)
# Construct: plasmid pSTAT3-TA-luc), which contains a stably operating STAT3 promoter; endogenous in cells
# Sequence (P40763 whole entry): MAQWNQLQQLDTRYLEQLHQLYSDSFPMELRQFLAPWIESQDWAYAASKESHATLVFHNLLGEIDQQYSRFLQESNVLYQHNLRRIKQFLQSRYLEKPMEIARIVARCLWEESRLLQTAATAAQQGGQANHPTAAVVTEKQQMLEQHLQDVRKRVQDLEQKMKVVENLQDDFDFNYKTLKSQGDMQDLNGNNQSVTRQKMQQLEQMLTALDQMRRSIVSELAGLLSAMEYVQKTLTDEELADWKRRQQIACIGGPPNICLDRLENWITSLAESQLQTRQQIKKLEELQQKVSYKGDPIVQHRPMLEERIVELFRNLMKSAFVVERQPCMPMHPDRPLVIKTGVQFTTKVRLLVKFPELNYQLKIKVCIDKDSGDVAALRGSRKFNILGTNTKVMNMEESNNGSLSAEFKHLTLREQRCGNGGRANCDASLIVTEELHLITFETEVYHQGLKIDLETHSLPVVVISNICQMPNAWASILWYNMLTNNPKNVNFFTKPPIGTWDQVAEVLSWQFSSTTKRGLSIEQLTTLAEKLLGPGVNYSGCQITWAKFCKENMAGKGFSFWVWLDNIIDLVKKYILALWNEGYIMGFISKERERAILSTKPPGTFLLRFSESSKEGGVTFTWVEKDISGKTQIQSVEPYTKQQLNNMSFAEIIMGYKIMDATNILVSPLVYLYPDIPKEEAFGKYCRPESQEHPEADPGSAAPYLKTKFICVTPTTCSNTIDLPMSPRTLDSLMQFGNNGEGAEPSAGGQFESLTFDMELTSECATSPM
# method: STAT3 reporter gene assay (luciferase), LNCaP stable cell line (pSTAT3-TA-luc), IL-6 stimulation
# Type: cell-based
Measured IC50 accompanies every entry in the list below.
outcome_measure: IC50 (µM)

compound="CC(C)Oc1cc(-c2ccnn2C)cc(C(C)(C)c2cc(Cl)cc(NC(=O)c3cc4cc(NS(C)(=O)=O)ccc4s3)c2)c1 [Example 142]" censoring_operator== observed_measurement=0.13
compound="CC(C)(c1ccc(F)cc1)c1cc(NC(=O)c2cc3cc(NS(C)(=O)=O)ccc3s2)cc(OC(F)F)c1 [Example 39]" censoring_operator== observed_measurement=0.048
compound="COc1ccc(C(C)(C)c2cc(Cl)cc(NC(=O)c3cc4cc(NS(C)(=O)=O)ccc4s3)c2)cc1 [Example 155]" censoring_operator== observed_measurement=0.078
compound="COC(=O)c1ccc(Cl)c(-c2cccc(NC(=O)c3cc4ccc([N+](=O)[O-])cc4[nH]3)c2)c1 [Example 298]" censoring_operator=> observed_measurement=10

====

Below, each of the compounds is paired with its reported log10(IC50) value.
# Tested on: LNCaP
# method: Cell growth inhibition assay, prostate cancer cell line LNCaP (medium with 10 ng/mL IL-6)
# Type: cell-based
# assay_setup: Homo sapiens, medium supplemented with 10 ng/mL of IL-6, 10,000 cells/well
outcome_measure: log10(IC50) (log10 of the value in µM)

compound=COc1cc(OC(F)(F)F)cc(C(C)(C)c2cc(Cl)cc(NC(=O)c3cc4cc(NS(C)(=O)=O)ccc4s3)n2)c1 outcome_measure=log10(IC50) observed_measurement=-1.80
compound=CS(=O)(=O)Nc1ccc2cc(C(=O)Nc3cccc(-c4cnc(Cl)cc4C(F)(F)F)c3)[nH]c2c1 outcome_measure=log10(IC50) observed_measurement=0.54
compound=CC(C)Oc1cc(CN2CCC3(CC2)COC3)cc(C(C)(C)c2cc(Cl)cc(NC(=O)c3cc4cc(NS(C)(=O)=O)ccc4s3)c2)c1 outcome_measure=log10(IC50) observed_measurement=-0.08
compound=CC(C)(c1cccc(NC(=O)c2cc3cc(NS(C)(=O)=O)ccc3s2)c1)c1ccc(F)cc1F outcome_measure=log10(IC50) observed_measurement=-0.17
compound=CC(C)Oc1cc(CN2CCN(C(=O)OC(C)(C)C)CC2)cc(C(C)(C)c2cc(Br)cc(NC(=O)c3cc4cc(NS(C)(=O)=O)ccc4s3)c2)c1 outcome_measure=log10(IC50) observed_measurement=-0.82
compound=CS(=O)(=O)Nc1cc2cc(C(=O)Nc3cc(Cl)cc(Oc4ccc(F)c(Cl)c4)c3)sc2cc1Cl outcome_measure=log10(IC50) observed_measurement=-1.66
compound=CC(C)Oc1cc(OC(F)(F)F)cc(C(C)(C)c2cc(Cl)cc(NC(=O)c3cc4cc(NS(=O)(=O)CCN5CCOCC5)ccc4s3)c2)c1 outcome_measure=log10(IC50) observed_measurement=-1.28
compound=CC(C)Oc1cc(CN2CCOCC2)cc(C(C)(C)c2cc(F)cc(NC(=O)c3cc4cc(NS(C)(=O)=O)ccc4s3)c2)c1 outcome_measure=log10(IC50) observed_measurement=-0.40
compound=Cc1ccc(C(C)(C)c2cc(Cl)cc(NC(=O)c3cc4cc(NS(C)(=O)=O)ccc4s3)c2)s1 outcome_measure=log10(IC50) observed_measurement=-1.38
compound=COc1cc(OC(F)(F)F)cc(C(C)(C)c2cc(F)cc(NC(=O)c3cc4cc(NS(C)(=O)=O)ccc4s3)c2)c1 outcome_measure=log10(IC50) observed_measurement=-1.43
compound=CN(c1ccc2sc(C(=O)Nc3cc(Cl)cc(Oc4ccc(Cl)cc4)c3)cc2c1)S(C)(=O)=O outcome_measure=log10(IC50) observed_measurement=-1.89
compound=CS(=O)(=O)Nc1cc2cc(C(=O)Nc3cc(Cl)cc(Oc4cc(F)cc(Cl)c4)c3)sc2cc1Cl outcome_measure=log10(IC50) observed_measurement=-1.70
compound=CS(=O)(=O)Nc1ccc2sc(C(=O)Nc3cc(Cl)cc(Oc4ccc(OC(F)(F)F)cc4)c3)cc2c1 outcome_measure=log10(IC50) observed_measurement=-0.08
compound=Cc1ccc(C(C)(C)c2cc(Cl)cc(NC(=O)c3cc4cc(NS(C)(=O)=O)c(Cl)cc4s3)c2)s1 outcome_measure=log10(IC50) observed_measurement=-2.15
compound=CS(=O)(=O)Nc1ccc2sc(C(=O)Nc3cc(OC(F)F)cc(-c4ccc(F)cc4F)c3)cc2c1 outcome_measure=log10(IC50) observed_measurement=-0.22
compound=CC(=O)N1CCC(S(=O)(=O)Nc2ccc3sc(C(=O)Nc4cc(Cl)cc(C(C)(C)c5cc(OC(C)C)cc(OC(F)(F)F)c5)c4)cc3c2)CC1 outcome_measure=log10(IC50) observed_measurement=-0.72
compound=COc1cc(NC(=O)c2cc3ccc(NS(C)(=O)=O)cc3[nH]2)cc(C(C)(C)c2cc(OC)cc(OC(F)(F)F)c2)c1 outcome_measure=log10(IC50) observed_measurement=-0.32
compound=CS(=O)(=O)Nc1cc2cc(C(=O)Nc3cc(Cl)cc(Oc4ccc(F)cc4)c3)sc2cc1Cl outcome_measure=log10(IC50) observed_measurement=-1.74
compound=CC(C)Oc1cc(OC(F)(F)F)cc(C(C)(C)c2cc(Cl)cc(NC(=O)c3cc4cc(N(C)S(C)(=O)=O)c(F)cc4s3)c2)c1 outcome_measure=log10(IC50) observed_measurement=-2.22
compound=CCC(CC)(c1cc(NC(=O)c2cc3ccc(NS(C)(=O)=O)cc3[nH]2)cc(OC)c1)c1cc(OC)cc(OC(F)(F)F)c1 outcome_measure=log10(IC50) observed_measurement=-0.27
compound=CS(=O)(=O)Nc1ccc2sc(C(=O)Nc3cc(Cl)cc(Oc4ccc(F)c(OC(F)(F)F)c4)c3)cc2c1 outcome_measure=log10(IC50) observed_measurement=-1.17
compound=CN(c1cc(Cl)cc(NC(=O)c2cc3cc(NS(C)(=O)=O)c(Cl)cc3s2)c1)c1ccc(F)cc1F outcome_measure=log10(IC50) observed_measurement=-1.44
compound=CC(C)(c1cccc(Cn2ccnc2)c1)c1cc(Br)cc(NC(=O)c2cc3cc(NS(C)(=O)=O)ccc3s2)c1 outcome_measure=log10(IC50) observed_measurement=0.56
compound=CC(C)Oc1cc(OC(F)(F)F)cc(C(C)(C)c2cc(Cl)cc(NC(=O)c3cc4cc(NS(=O)(=O)CCN(C)O)ccc4s3)c2)c1 outcome_measure=log10(IC50) observed_measurement=-0.55
compound="O=C(Nc1cc(Cl)cc(-c2ccc(F)cc2F)c1)c1cc2cc(NS(=O)(=O)C3CCOC3)ccc2s1 (stereo not drawn)" outcome_measure=log10(IC50) observed_measurement=-1.06
compound=O=C(Nc1cccc(-c2ccccc2C(F)(F)F)c1)c1cc2ccc(NS(=O)(=O)CC(F)(F)F)cc2[nH]1 outcome_measure=log10(IC50) observed_measurement=0.79
